Where do these numbers come from? They come from patent US6673827B1.

# Test system: Cryptococcus neoformans SLP-BC0012854
# assayMethodText: In vitro study of inhibition of growth and lethality against yeast (MIC/MLC susceptibility test), isolate H
# Type: cell-based
# testConditions: SLPBC0012854; Cryptococcus neoformans, 2nd pair of lines; isolate assigned by line order; read-out: Minimum Lethal Conc. (MLC)
So I've got a bunch of molecules here, and I need their MFC values.

Sample records with MFC:
COC(=O)c1cc2cc(OCc3ccccc3)ccc2n1CCCCCCCOC(=O)c1ccc(CN(C)C)cc1
> 32 µg/mL
C[N+](C)(C)c1ccc(CC(=O)OCCCCCCCCOc2ccc(OCc3ccccc3)cc2)cc1.[I-]
2 µg/mL
C[N+](C)(C)C(CCc1ccccc1)C(=O)OCCCCCCCCOc1ccc(OCc2ccccc2)cc1.[I-] (stereo not shown)
2 µg/mL
Cc1[nH]c2ccccc2c1/C=C/C1=[N+](C)c2ccccc2C1(C)C.[Cl-]
> 32 µg/mL
COC(=O)c1cc2ccccc2[n+](C)c1-c1c[nH]c2ccccc12.[I-]
> 32 µg/mL

For the 2 molecules below, give their MFC values.
1. C[N+](C)(C)c1ccc(CCCC(=O)OCCCCCCCCOc2ccc(OCc3ccccc3)cc2)cc1.[I-]
2. C[N+](C)(C)C(Cc1ccccc1)C(=O)OCCCCCCCCOc1ccc(OCc2ccccc2)cc1.[I-] (stereo not shown)

1. 4 µg/mL
2. 4 µg/mL
